These measurements were taken from patent US8178506B2.

Consider the following substances and their measured Follistatin (% UTC) readings.
# System: follistatin
# METHOD SUMMARY: Follistatin mRNA expression in HepG2 cells
# Type: cell-based, human
# REPORTED CONDITIONS: Experiment 2, 1 nM insulin treated; HepG2; 100 nM oligomeric compound
In the oligonucleotide strings, read from the 5' end, every base follows the letter of its sugar. An asterisk marks phosphorothioate; unmarked linkages are phosphodiester. Other units and linkages are bracketed, terminal groups are in braces. A string of capitals states the bases alone. e = 2'-O-(2-methoxyethyl) (MOE); [5mC] = 5-methylcytosine
Numbers only here, please. The scale is % UTC.

1) 327925 (antisense eT*eA*eG*e[5mC]*eT*eG*eG*eT*eT*eG*eA*eA*eG*eG*eG*eG*eA*e[5mC]*e[5mC]*eA*eA) [compound 327925]    148
2) 327901 (antisense eT*eG*eA*eG*e[5mC]*eT*eA*e[5mC]*eA*eG*eT*eG*e[5mC]*eT*eT*e[5mC]*eA*eT*e[5mC]*eT*e[5mC]*eA) [compound 327901]    135
3) 327892 (antisense eA*e[5mC]*eT*eT*eT*e[5mC]*eG*eG*eT*eT*eA*eT*e[5mC]*eT*eA*eG*e[5mC]*eT*eT*eT*eA) [compound 327892]    96
4) 327876 (antisense eA*eA*e[5mC]*eA*e[5mC]*eT*eG*eA*eT*eT*eT*e[5mC]*eA*eA*eA*eT*eG*eG*eT*eG*e[5mC]*eT*eA) [compound 327876]    138

Attention now shifts to the item below.
Task: Request the reported Follistatin (% UTC) associated with 327919 (antisense eG*eA*eA*eA*e[5mC]*e[5mC]*e[5mC]*eA*eG*e[5mC]*eA*eG*eA*e[5mC]*eA*eA*eT*eG*eT*eA*eG*e[5mC]*eT) [compound 327919]
Result: 178

###

Consider the following substances and their measured % cells in cell cycle phase G1 readings.
# System: HeLa cells
# METHOD SUMMARY: Cell cycle assay in HeLa cells
# Type: cell-based, human
# REPORTED CONDITIONS: HeLa cells, 150 nM, 48 hours, relative to untreated control
In the oligonucleotide strings, read from the 5' end, every base follows the letter of its sugar. An asterisk marks phosphorothioate; unmarked linkages are phosphodiester. Other units and linkages are bracketed, terminal groups are in braces. A string of capitals states the bases alone. e = 2'-O-(2-methoxyethyl) (MOE); [5mC] = 5-methylcytosine; d = 2'-deoxy (DNA)
Numbers only here, please. The scale is %.

1. 341787 (antisense CACAGGTTAAAGGGTCTCAGGGA; all 2'-MOE, all phosphorothioate, methylation of C not given here) [compound 341787]    88
2. 25690 (antisense eA*eT*e[5mC]*e[5mC]*e[5mC]*dT*dT*dT*d[5mC]*dT*dT*d[5mC]*d[5mC]*dG*d[5mC]*eA*eT*eG*eT*eG) [compound 25690]    119
3. 338833 (antisense TCGTGCACCTGAGGAGTCTG; all 2'-MOE, all phosphorothioate, methylation of C not given here) [compound 338833]    87
4. 340350 (antisense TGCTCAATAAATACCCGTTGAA; all 2'-MOE, all phosphorothioate, methylation of C not given here) [compound 340350]    101
5. 328759 (antisense eG*eA*eG*eG*eG*dA*dT*dT*dG*dT*dA*dT*dG*dA*dA*e[5mC]*eA*eT*e[5mC]*eT) [compound 328759]    40

Attention now shifts to the item below.
Task: Request the reported % cells in cell cycle phase G1 associated with 25691 (antisense eG*e[5mC]*e[5mC]*eA*eA*dG*dG*d[5mC]*dG*dT*dG*dA*d[5mC]*dA*dT*eG*eA*eT*eA*eT) [compound 25691]
Result: 53

###

# Tested on: adipocytes
# METHOD SUMMARY: Triglyceride accumulation assay in adipocytes
# Type: cell-based, human
# REPORTED CONDITIONS: differentiating adipocytes transfected with oligomeric compound
In the oligonucleotide strings, read from the 5' end, every base follows the letter of its sugar. An asterisk marks phosphorothioate; unmarked linkages are phosphodiester. Other units and linkages are bracketed, terminal groups are in braces. A string of capitals states the bases alone. e = 2'-O-(2-methoxyethyl) (MOE); [5mC] = 5-methylcytosine; d = 2'-deoxy (DNA)
ENDPOINT LABEL: TG (triglyceride accumulation)

Task: Request the reported TG (triglyceride accumulation) associated with 328400 (antisense eA*eG*eT*eT*e[5mC]*dA*dA*dA*dA*d[5mC]*dT*d[5mC]*dA*dA*dT*e[5mC]*e[5mC]*e[5mC]*eA*eA) [compound 328400]
Result: 60 percentage of untreated control (UTC)

###

# System: HeLa cells
# METHOD SUMMARY: Cell cycle assay in HeLa cells
# Assay type: cell-based, human
# REPORTED CONDITIONS: HeLa cells, 150 nM oligomeric compound, 48 hours after treatment; relative to untreated control (UTC=100)
In the oligonucleotide strings, read from the 5' end, every base follows the letter of its sugar. An asterisk marks phosphorothioate; unmarked linkages are phosphodiester. Other units and linkages are bracketed, terminal groups are in braces. A string of capitals states the bases alone. e = 2'-O-(2-methoxyethyl) (MOE); [5mC] = 5-methylcytosine; d = 2'-deoxy (DNA)
Consider the following substances and their measured % cells in cell cycle phase: aneuploid readings.
Numbers only here, please. The scale is %.

Task: Request the reported % cells in cell cycle phase: aneuploid associated with 328419 (antisense eT*eG*eT*eT*eG*d[5mC]*d[5mC]*dT*dA*dA*d[5mC]*dG*dA*dA*d[5mC]*eA*e[5mC]*eA*eG*eA) [compound 328419]
Result: 112

Task: Request the reported % cells in cell cycle phase: aneuploid associated with 341785 (antisense GGAGTGAAGACACGGAGCCAGA; all 2'-MOE, all phosphorothioate, methylation of C not given here) [compound 341785]
Result: 166

Task: Request the reported % cells in cell cycle phase: aneuploid associated with 338833 (antisense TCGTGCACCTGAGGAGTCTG; all 2'-MOE, all phosphorothioate, methylation of C not given here) [compound 338833]
Result: 154

Task: Request the reported % cells in cell cycle phase: aneuploid associated with 338678 (antisense CTGGTTGGGTATGAGACAGA; all 2'-MOE, all phosphorothioate, methylation of C not given here) [compound 338678]
Result: 179

Task: Request the reported % cells in cell cycle phase: aneuploid associated with 341787 (antisense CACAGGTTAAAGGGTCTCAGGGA; all 2'-MOE, all phosphorothioate, methylation of C not given here) [compound 341787]
Result: 153

Task: Request the reported % cells in cell cycle phase: aneuploid associated with 328676 (eA*e[5mC]*e[5mC]*eT*e[5mC]*d[5mC]*d[5mC]*dA*dG*d[5mC]*d[5mC]*dA*dA*dT*d[5mC]*e[5mC]*eA*eT*eG*eT; antisense) [compound 328676]
Result: 172

Task: Request the reported % cells in cell cycle phase: aneuploid associated with 328727 (antisense e[5mC]*eT*eG*e[5mC]*eT*d[5mC]*d[5mC]*dA*dG*dA*dG*d[5mC]*d[5mC]*d[5mC]*dG*eA*eG*eT*e[5mC]*eG) [compound 328727]
Result: 140

Task: Request the reported % cells in cell cycle phase: aneuploid associated with 340925 (antisense GTGGTAATCCCTGGCAATGTGAT; sugars from the 5' end e5 d10 e8, all phosphorothioate, methylation of C not given here) [compound 340925]
Result: 93

Task: Request the reported % cells in cell cycle phase: aneuploid associated with 327901 (antisense eT*eG*eA*eG*e[5mC]*eT*eA*e[5mC]*eA*eG*eT*eG*e[5mC]*eT*eT*e[5mC]*eA*eT*e[5mC]*eT*e[5mC]*eA) [compound 327901]
Result: 104

###

Consider the following substances and their measured IGFBP1 mRNA readings.
# System: IGFBP-1
# METHOD SUMMARY: IGFBP-1 mRNA expression in HepG2 cells
# Format: cell-based, human
# REPORTED CONDITIONS: HepG2 cells, Experiment 1, basal (no insulin), four hours; UTC = 100
In the oligonucleotide strings, read from the 5' end, every base follows the letter of its sugar. An asterisk marks phosphorothioate; unmarked linkages are phosphodiester. Other units and linkages are bracketed, terminal groups are in braces. A string of capitals states the bases alone. e = 2'-O-(2-methoxyethyl) (MOE); [5mC] = 5-methylcytosine

Example cases with answers are listed next.
1) 327886 (antisense e[5mC]*eG*e[5mC]*eG*eT*eA*e[5mC]*e[5mC]*eA*eA*eA*eA*eG*eT*eA*eA*eT*eA*eA*eT*eG) [compound 327886]    176
2) 327946 (antisense eA*eG*eG*e[5mC]*eG*eA*eA*eG*eG*eA*eT*eG*eA*e[5mC]*eA*eA*eA*eG*eG*eG*eA*eA) [compound 327946]    108
3) 327957 (antisense e[5mC]*eA*e[5mC]*eA*eA*eG*eT*eT*e[5mC]*eG*eG*eA*eT*e[5mC]*eT*eA*e[5mC]*eG*eG*eG*eT*eT) [compound 327957]    143
4) 327965 (antisense eA*eT*e[5mC]*eA*e[5mC]*eA*eT*eA*eG*eG*eA*eA*eT*eA*eA*eA*eA*eA*eG*e[5mC]*e[5mC]*eA*eT*eA) [compound 327965]    106

Attention now shifts to the item below.
Task: Request the reported IGFBP1 mRNA associated with 327963 (antisense eA*eA*e[5mC]*e[5mC]*eT*eA*eT*e[5mC]*e[5mC]*eT*eG*eA*eA*eT*eT*eA*e[5mC]*eT*eT*eG*eA*eA) [compound 327963]
Result: 108
